targetOrSystem: UniProt Q00987
Sequence (Q00987 whole entry): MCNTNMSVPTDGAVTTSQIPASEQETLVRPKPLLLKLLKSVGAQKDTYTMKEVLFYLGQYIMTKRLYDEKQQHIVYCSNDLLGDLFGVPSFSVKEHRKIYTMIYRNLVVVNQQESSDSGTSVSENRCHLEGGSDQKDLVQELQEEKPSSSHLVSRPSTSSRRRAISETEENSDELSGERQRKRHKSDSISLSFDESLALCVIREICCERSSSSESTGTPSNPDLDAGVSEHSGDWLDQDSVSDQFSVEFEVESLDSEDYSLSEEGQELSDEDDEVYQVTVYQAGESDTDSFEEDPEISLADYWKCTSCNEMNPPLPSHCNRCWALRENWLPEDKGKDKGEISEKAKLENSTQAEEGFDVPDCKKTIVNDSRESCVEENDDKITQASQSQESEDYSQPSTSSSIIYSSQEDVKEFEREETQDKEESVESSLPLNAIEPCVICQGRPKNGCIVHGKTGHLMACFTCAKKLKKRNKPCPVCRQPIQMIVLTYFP
testDetails: NMR-based binding assay, MDM2
testParameters: imidazolidine scaffold, Table 3
pKi: −log10 of the molar value.
# pKi listing for each entry below
metric: pKi

# compound, metric, result
data = [
    ("COC(=O)C1(c2ccccc2)N=CN(Cc2cccc(N)c2)C1c1ccc(Cl)cc1 (stereo not shown)", "pKi", "~5.30"),
    ("COC(=O)C1(c2ccccc2)N=CN(CC2CC2)C1c1cc2ccc(Cl)cc2[nH]1 (stereo not shown)", "pKi", "~4.40"),
    ("COC(=O)C1(CCSC)N=CN(CC2CC2)C1c1ccc(Br)cc1 (stereo not shown)", "pKi", "~4.70"),
    ("COC(=O)C1(C)N=CN(CC2CC2)C1c1cc2ccc(Cl)cc2[nH]1 (stereo not shown)", "pKi", "~4.30"),
    ("COC(=O)C1(C)N=CN(CC2CC2)C1c1ccc(Cl)cc1 (stereo not shown)", "pKi", "~5.70"),
    ("O=C(NCCCN1CCOCC1)C1(c2ccccc2)N=CN(CC2CC2)C1c1ccc(Cl)cc1 (stereo not shown)", "pKi", 6.00),
    ("COC(=O)C1(c2ccccc2)N=CN(CC(C)C)C1c1ccc(Cl)cc1 (stereo not shown)", "pKi", "~5.00"),
]
